- System under test: T1, P6-AA-1HAA-V
- T1 chain: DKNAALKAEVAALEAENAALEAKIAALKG
- Protocol summary: two-hybrid library CCmax;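 note: natural log of median RNA to DNA barcode read ratio; higher means stronger binding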
- Assay context: mean of both orientations
Measurement kind: interaction score

Looking up DENAALEAKTAALKAKNAALKAEIAALEG [P5-AA-1HAA-T] , I see its interaction score listed as 2.01

A. DENAALEAKDAALKAKNAALKAEIAALEG [P5-AA-1HAA-D]
B. DENAALEAKSAALKAKNAALKAEIAALEG [P5-AA-1HAA-S]
Query: // compare measured interaction score between A and B ; output the lower one Refer to your chosen item by its label in the answer.
Response: A
(A: 0.68, B: 2.16)
